Record form. Attribute: Maximum mean fluorescence intensity. Fill in for each entry.
molecular target: T1, human EGFRvIII protein on the cell surface (human, UniProt P00533 25-1210); test: FACS on U87MG-EGFRvIII cells
T1 construct: whole, on cells; the cell line is named under assay; also called hEGFRvIII; U87MG-hEGFRvIII

What the record says about Humanized antibody h63A10A7-22 (antibody, human IgG1, V domains shown, also called VH-g4/VL-g3) VH: QVQLVQSGAEVKKPGASVKVSCKASGYTFISFTMHWVKQRPGQGLEWIGYINPNSGYTKYNQKFKDKATLTRDTSTSTVYMELSSLRSEDTAVYYCTRGGGRGFAYWGQGTLVTVSS VL: DIQMTQSPSSLSASVGDRVTITCHASQDINSNIGWLQQKPGKSFKALIYHGTNLEDGVPSRFSGSGSGADYTLTISSLQPEDFATYYCVQYAQFPFTFGQGTKLEIK : Maximum mean fluorescence intensity is 23500 MFI

What the record says about Humanized antibody h63A10A7-37 (antibody, human IgG1, V domains shown, also called VH-g6/VL-g3) VH: QVQLVQSGAEVKKPGASVKVSCKASGYTFISFTMHWVKQRPGQGLEWMGYINPNSGYTKYNQKFKDKATMTRDTSTSTVYMELSSLRSEDTAVYYCTRGGGRGFAYWGQGTLVTVSS VL: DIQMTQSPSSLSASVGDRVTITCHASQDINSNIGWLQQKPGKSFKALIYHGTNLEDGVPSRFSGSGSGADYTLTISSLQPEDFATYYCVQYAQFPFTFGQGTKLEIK : Maximum mean fluorescence intensity is 10200 MFI

What the record says about Humanized antibody h63A10A7-19 (antibody, human IgG1, V domains shown, also called VH-g6/VL-g4) VH: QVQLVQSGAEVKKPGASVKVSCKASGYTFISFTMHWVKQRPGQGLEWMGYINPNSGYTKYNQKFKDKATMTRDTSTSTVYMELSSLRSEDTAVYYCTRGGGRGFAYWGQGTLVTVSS VL: DILMTQSPSSLSASVGDRVTITCHASQDINSNIGWLQQKPGKSFKALIYHGTNLEDGVPSRFSGSGSGADYTLTISSLQPEDFATYYCVQYAQFPFTFGQGTKLEIK : Maximum mean fluorescence intensity is 21100 MFI

What the record says about Chimeric antibody 75G7 (antibody, human IgG1, V domains shown, also called c75G7C6; chimeric antibody c75G7C6) VH: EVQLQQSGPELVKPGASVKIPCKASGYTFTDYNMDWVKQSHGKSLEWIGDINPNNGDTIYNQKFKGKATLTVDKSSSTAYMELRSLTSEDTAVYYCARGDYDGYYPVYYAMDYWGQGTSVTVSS VL: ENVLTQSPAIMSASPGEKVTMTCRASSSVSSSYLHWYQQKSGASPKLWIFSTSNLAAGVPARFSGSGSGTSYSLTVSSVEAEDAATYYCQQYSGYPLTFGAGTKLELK : Maximum mean fluorescence intensity is 18100 MFI

What the record says about Humanized antibody h63A10A7-26 (antibody, human IgG1, V domains shown, also called VH-g4/VL-g8) VH: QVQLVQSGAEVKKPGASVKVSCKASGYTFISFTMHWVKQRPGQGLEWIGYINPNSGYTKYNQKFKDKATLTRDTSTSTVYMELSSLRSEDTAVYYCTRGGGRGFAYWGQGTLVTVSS VL: DILMTQSPSSLSASVGDRVTITCHASQDINSNIGWYQQKPGKSFKALIYHGTNLEDGVPSRFSGSGSGADFTLTISSLQPEDFATYYCVQYAQFPFTFGQGTKLEIK : Maximum mean fluorescence intensity is 23700 MFI
